The origin of these recorded values is the FLAb antibody collection (doi:10.7554/elife.23156).

B1: scFv; the commonest letter at each place (parent)
chain 1: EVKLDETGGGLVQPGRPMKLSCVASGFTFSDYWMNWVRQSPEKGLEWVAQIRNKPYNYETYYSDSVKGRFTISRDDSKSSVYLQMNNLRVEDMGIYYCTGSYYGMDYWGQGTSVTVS
chain 2: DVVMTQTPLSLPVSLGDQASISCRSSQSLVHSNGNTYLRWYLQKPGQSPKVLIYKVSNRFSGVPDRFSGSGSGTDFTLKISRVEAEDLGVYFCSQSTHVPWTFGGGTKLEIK

variants of: B1; test: yeast surface expression (ratio to wild type); higher = more expressed; conditions: format: scFv 4-4-20, heavy + light
assay.metric: yeast surface expression

        sequence_change              assay_metric  value_observed
 0        chain 1 W108C  yeast surface expression           0.717
 1  chain 1 Y102A Y107P  yeast surface expression           0.707
 2  chain 1 S101W Y103A  yeast surface expression           0.685
 3  chain 1 Y103G G109T  yeast surface expression            0.68
 4  chain 1 S101N W108P  yeast surface expression           0.506
 5  chain 1 S101D Y102P  yeast surface expression           0.719
 6         chain 1 N35F  yeast surface expression           0.708
 7    chain 1 D31P W36I  yeast surface expression           0.513
 8    chain 1 S30N N35E  yeast surface expression           0.697
 9        chain 1 G100W  yeast surface expression           0.491
10    chain 1 F29Q W33I  yeast surface expression           0.707
